system: Ascosphaera apis; assay: Inhibition of radial growth of Ascosphaera apis mycelium in potato-saccharose agar; assay type: cell-based; settings: Ascosphaera apis, 72 h, A. apis, concentration 30 mg/L, potato-saccharose agar, 25 °C, read-out: Mycelium Growth Inhibition (I), %
PROPERTY LABEL: inhibition at 30 µg/mL (%)

INSERT INTO assay_data (molecule, target_or_test_system, modifier, obs_value) VALUES
  ('CC(C)(C)C(=O)C(Oc1ccc(Cl)cc1)n1cncn1 (stereo not drawn)', 'Ascosphaera apis', '<', 100),
  ('C=CCC1(C(=O)OCC)CCC2(C)OOC1(C)O2 (stereo not drawn)', 'Ascosphaera apis', '=', 94),
  ('C=CCC12CCC3(C)OC1(C)OOC2(C)O3', 'Ascosphaera apis', '=', 25),
  ('COc1ccc(C23OOC4(C)OC(C)(CCC42)O3)cc1 (stereo not drawn)', 'Ascosphaera apis', '=', 53),
  ('CO/N=C(/C(=O)OC)c1ccccc1COc1ccccc1C', 'Ascosphaera apis', '<', 100),
  ('CC12OOC(C)(OO1)C2C12CC3CC(CC(C3)C1)C2 (stereo not drawn)', 'Ascosphaera apis', '=', 94);
